Test system: johnsongrass (Sorghum halepense)
Assay: Test B pre-/postemergence plant response
Format: in vivo
Conditions: Preemergence; 16 g ai/ha; scale 0 to 100
readoutType: Johnsongrass plant response rating

chemicalstring=Cc1cc(-c2ccc(Cl)cc2)nn1-c1c(OC(=O)c2cccs2)cnn(C)c1=O testedon="johnsongrass (Sorghum halepense)" obsvalue=65
chemicalstring=Cc1cc(-c2ccc(Cl)cc2)nn1-c1c(OS(=O)(=O)c2ccc(Cl)s2)cnn(C)c1=O testedon="johnsongrass (Sorghum halepense)" obsvalue=15
chemicalstring=Cc1nn(C)c(=O)c(-c2nc(-c3ccc(Cl)cc3)sc2C)c1O testedon="johnsongrass (Sorghum halepense)" obsvalue=85
chemicalstring=Cc1cc(-c2ccc(Cl)cc2)nn1-c1c(OC(=O)Oc2ccccc2)cnn(C)c1=O testedon="johnsongrass (Sorghum halepense)" obsvalue=40
chemicalstring=CCc1c(C)c(-c2ccc(Br)cc2)nn1-c1c(O)cnn(C)c1=O testedon="johnsongrass (Sorghum halepense)" obsvalue=85
chemicalstring=COc1nn(C)c(=O)c(-n2nc(-c3ccc(Br)cc3)cc2C)c1O testedon="johnsongrass (Sorghum halepense)" obsvalue=85

###

Property: Plant response rating, Oat, Wild; scope: individual compounds
System: wild oat (Avena fatua)
Test: Test B pre-/postemergence plant response
Type: in vivo
Settings: Preemergence, 31 g ai/ha; scale 0 to 100 (0 no effect, 100 complete control)
Source text: […] Plant species in the flooded paddy test consisted of rice (Oryza sativa), umbrella sedge (Cyperus difformis), ducksalad (Heteranthera limosa) and barnyardgrass (Echinochloa crus-galli) grown to the 2-leaf stage for testing. […] Treated plants and controls were maintained in a greenhouse for 13 to 15 days, after which time all species were compared to controls and visually evaluated. […]
readoutType: Plant response rating, Oat, Wild

chemicalstring=CCOC(=O)Oc1cnn(C)c(=O)c1-n1nc(-c2ccc(Cl)cc2)cc1C obsvalue=80
chemicalstring=Cc1cc(-c2ccc(C(F)(F)F)c(F)c2)nn1-c1c(O)c(C(F)(F)F)nn(C)c1=O obsvalue=85
chemicalstring=CCc1cc(-c2ccc(C(F)(F)F)cc2)nn1-c1c(O)c(OC)nn(C)c1=O obsvalue=95
chemicalstring=CCCc1cc(-c2ccc(Cl)cc2)nn1-c1c(O)cnn(C)c1=O obsvalue=95
chemicalstring=Cc1cc(-c2ccc(Cl)cc2)nn1-c1c(OS(=O)(=O)c2ccc(Cl)s2)cnn(C)c1=O obsvalue=35

###

Each entry below carries its recorded Plant response rating, Cupgrass, Woolly.
System: woolly cupgrass (Eriochloa villosa)
Test: Test B pre-/postemergence plant response
Format: in vivo
Settings: Postemergence, 16 g ai/ha; scale 0 to 100
From the text: […] Plant species in the flooded paddy test consisted of rice (Oryza sativa), umbrella sedge (Cyperus difformis), ducksalad (Heteranthera limosa) and barnyardgrass (Echinochloa crus-galli) grown to the 2-leaf stage for testing. […] Treated plants and controls were maintained in a greenhouse for 13 to 15 days, after which time all species were compared to controls and visually evaluated. […]
readoutType: Plant response rating, Cupgrass, Woolly

chemicalstring=Cc1cc(-c2ccc(Cl)cc2)nn1-c1c(OS(=O)(=O)c2ccccc2)cnn(C)c1=O obsvalue=95
chemicalstring=Cc1cc(-c2ccc(Cl)cc2)nn1-c1c(OC(=O)Oc2ccccc2)cnn(C)c1=O obsvalue=90
chemicalstring=Cn1ncc(O)c(-n2nc(-c3ccc(Cl)cc3)cc2C2CC2)c1=O obsvalue=95
chemicalstring=CCc1cc(-c2ccc(Br)cc2)nn1-c1c(O)cnn(CC(F)(F)F)c1=O obsvalue=98
chemicalstring=CCCc1cc(-c2ccc(Cl)cc2)nn1-c1c(O)cnn(C)c1=O obsvalue=90

###

Test system: woolly cupgrass (Eriochloa villosa)
Assay: Test B pre-/postemergence plant response
Format: in vivo
Conditions: Postemergence, 62 g ai/ha; scale 0 to 100, 0 no effect, 100 complete control
readoutType: Plant response rating, Cupgrass, Woolly

chemicalstring=CCCc1cc(-c2ccc(C(F)(F)F)cc2)nn1-c1c(O)cnn(C)c1=O readouttype="Plant response rating, Cupgrass, Woolly" obsvalue=90
chemicalstring=Cc1nn(C)c(=O)c(-n2nc(-c3ccc(Cl)cc3)cc2Cl)c1O readouttype="Plant response rating, Cupgrass, Woolly" obsvalue=85
chemicalstring=Cc1cc(-c2ccc(Cl)cc2)nn1-c1c(OC(=O)c2cccc(Cl)c2)cnn(C)c1=O readouttype="Plant response rating, Cupgrass, Woolly" obsvalue=100
chemicalstring=Cc1cc(-c2ccc(Cl)cc2)nn1-c1c(OC(=O)Oc2ccccc2)cnn(C)c1=O readouttype="Plant response rating, Cupgrass, Woolly" obsvalue=100
chemicalstring=CCCc1cc(-c2ccc(Cl)cc2)nn1-c1c(O)cnn(C)c1=O readouttype="Plant response rating, Cupgrass, Woolly" obsvalue=90
chemicalstring=Cc1cc(-c2ccc(Cl)cc2)nn1-c1c(OC(=O)c2ccccc2Cl)cnn(C)c1=O readouttype="Plant response rating, Cupgrass, Woolly" obsvalue=100

###

Tested on: barnyardgrass (Echinochloa crus-galli)
Assay: Test A pre-/postemergence plant response
Assay type: in vivo
Conditions: Postemergence, 125 g ai/ha; 0 to 100 scale, 0 no effect, 100 complete control
Reported values of Plant response rating, Barnyardgrass for individual entries
readoutType: Plant response rating, Barnyardgrass

chemicalstring=Cc1cc(-c2ccc(C(F)(F)F)c(F)c2)nn1-c1c(O)c(C(F)(F)F)nn(C)c1=O obsvalue=100
chemicalstring=Cc1nn(C)c(=O)c(-n2nc(-c3ccc(Cl)cc3)cc2Cl)c1O obsvalue=100
chemicalstring=CCc1cc(-c2ccc(C(F)(F)F)cc2)nn1-c1c(O)c(OC)nn(C)c1=O obsvalue=100
chemicalstring=COc1nn(C)c(=O)c(-n2nc(-c3ccc(Br)cc3)cc2C)c1O obsvalue=100
chemicalstring=Cc1cc(-c2ccc(Cl)cc2)nn1-c1c(OC(=O)CC(C)C)cnn(C)c1=O obsvalue=100
chemicalstring=CCc1cc(-c2ccc(Cl)c(Cl)c2)nn1-c1c(OC(=O)OC(C)C)cnn(C)c1=O obsvalue=50
chemicalstring=CSc1cc(-c2ccc(F)cc2)nn1-c1c(O)cnn(C)c1=O obsvalue=0
chemicalstring=Cc1cc(-c2ccc(Cl)cc2)nn1-c1c(OC(=O)Oc2ccccc2)cnn(C)c1=O obsvalue=100
chemicalstring=CCc1cc(-c2ccc(Cl)cc2)nn1-c1c(O)cnn(C)c1=O obsvalue=100
chemicalstring=CCn1ncc(O)c(-c2cn(-c3ccc(Cl)cc3)nc2C)c1=O obsvalue=0
chemicalstring=Cc1cc(-c2ccc(Br)cc2)nn1-c1c(OC(=O)C2CC2)cnn(C)c1=O obsvalue=100
chemicalstring=Cc1cc(-c2ccc(C(F)(F)F)cc2)nn1-c1c(O)c(C(F)(F)F)nn(C)c1=O obsvalue=0
chemicalstring=Cc1cc(-c2ccc(Cl)cc2)nn1-c1c(OS(=O)(=O)c2cccc3ccccc23)cnn(C)c1=O obsvalue=40
chemicalstring=Cc1cc(-c2ccc(Cl)cc2)nn1-c1c(OS(=O)(=O)c2ccc(Cl)s2)cnn(C)c1=O obsvalue=30

###

System: barnyardgrass (Echinochloa crus-galli)
Assay: Test E pre-/postemergence plant response
Format: in vivo
Conditions: Postemergence, 16 g ai/ha; scale 0 to 100
readoutType: Plant response rating, Barnyardgrass

chemicalstring=CCc1cc(-c2ccc(Cl)cc2)nn1-c1c(O)cnn(C)c1=O readouttype="Plant response rating, Barnyardgrass" obsvalue=100
chemicalstring=Cc1cc(-c2ccc(Cl)cc2)nn1-c1c(OS(=O)(=O)c2ccccc2)cnn(C)c1=O readouttype="Plant response rating, Barnyardgrass" obsvalue=75
chemicalstring=CCOC(=O)Oc1cnn(C)c(=O)c1-n1nc(-c2ccc(Cl)cc2)cc1C readouttype="Plant response rating, Barnyardgrass" obsvalue=100
chemicalstring=Cc1cc(-c2ccc(Cl)cc2)nn1-c1c(OC(=O)Oc2ccccc2)cnn(C)c1=O readouttype="Plant response rating, Barnyardgrass" obsvalue=98

###

Tested on: corn (Zea mays)
Assay: Test A pre-/postemergence plant response
Type: in vivo
Settings: Postemergence, 125 g ai/ha; 0 to 100 scale, 0 no effect, 100 complete control
readoutType: Plant response rating, Corn

chemicalstring=Cc1cc(-c2ccc(Cl)cc2)nn1-c1c(OS(=O)(=O)c2ccc(Cl)s2)cnn(C)c1=O testedon="corn (Zea mays)" readouttype="Plant response rating, Corn" obsvalue=40
chemicalstring=Cc1cc(-c2ccc(OC(F)(F)F)cc2)nn1-c1c(O)cnn(C)c1=O testedon="corn (Zea mays)" readouttype="Plant response rating, Corn" obsvalue=40
chemicalstring=Cc1cc(-c2ccc(Cl)cc2)nn1-c1c(OS(=O)(=O)c2ccccc2)cnn(C)c1=O testedon="corn (Zea mays)" readouttype="Plant response rating, Corn" obsvalue=60
chemicalstring=Cc1cc(-c2ccc(C(F)(F)F)cc2)nn1-c1c(O)c(C(C)C)nn(C)c1=O testedon="corn (Zea mays)" readouttype="Plant response rating, Corn" obsvalue=50
chemicalstring=Cc1cc(-n2cc(Cl)cn2)ccc1-c1c(O)cnn(C)c1=O testedon="corn (Zea mays)" readouttype="Plant response rating, Corn" obsvalue=40
chemicalstring=CCn1ncc(O)c(-c2cn(-c3ccc(Cl)cc3)nc2C)c1=O testedon="corn (Zea mays)" readouttype="Plant response rating, Corn" obsvalue=0
chemicalstring=CCc1cc(-c2ccc(Cl)cc2)nn1-c1c(O)cnn(C)c1=O testedon="corn (Zea mays)" readouttype="Plant response rating, Corn" obsvalue=80

###

Tested on: johnsongrass (Sorghum halepense)
Test: Test B pre-/postemergence plant response
Type: in vivo
Settings: 8 g ai/ha, postemergence; 0-100 scale
readoutType: Johnsongrass plant response rating

chemicalstring=CCc1cc(-c2ccc(Cl)cc2)nn1-c1c(O)cnn(C)c1=O testedon="johnsongrass (Sorghum halepense)" obsvalue=60
chemicalstring=Cc1nn(C)c(=O)c(-n2nc(-c3ccc(Cl)cc3)cc2Cl)c1O testedon="johnsongrass (Sorghum halepense)" obsvalue=0
chemicalstring=CCc1c(C)c(-c2ccc(Br)cc2)nn1-c1c(O)cnn(C)c1=O testedon="johnsongrass (Sorghum halepense)" obsvalue=65
chemicalstring=Cc1cc(-c2ccc(Cl)cc2)nn1-c1c(OC(=O)c2ccccc2Cl)cnn(C)c1=O testedon="johnsongrass (Sorghum halepense)" obsvalue=60
chemicalstring=Cc1cc(-c2ccc(C(F)(F)F)c(F)c2)nn1-c1c(O)c(C(F)(F)F)nn(C)c1=O testedon="johnsongrass (Sorghum halepense)" obsvalue=55
chemicalstring=CCCC(=O)Oc1cnn(C)c(=O)c1-n1nc(-c2ccc(Cl)cc2)cc1C testedon="johnsongrass (Sorghum halepense)" obsvalue=0
